Tested on: Saccharomyces cerevisiae
Test: protein stability index of tFT-peptide fusion (C-terminal peptide) (PSI (0-1 scale)); higher = more stable (slower turnover)
Conditions: genetic background: wild type; temperature: 30 C
Experimental readout: protein stability index

Residues	Measured on	Experimental readout	Observed value
DTSLYRYRSYGY [PUF2 C-terminal 12 aa]	Saccharomyces cerevisiae	protein stability index	0.683
RKDEHIVQNIIN [YGR164W C-terminal 12 aa]	Saccharomyces cerevisiae	protein stability index	0.681
HSNTLKRKIEQV [PUS4 C-terminal 12 aa]	Saccharomyces cerevisiae	protein stability index	0.697
VLDVGSVLDVTI [PSR2 C-terminal 12 aa]	Saccharomyces cerevisiae	protein stability index	0.693
CIGDTDYIERYD [CDA1 C-terminal 12 aa]	Saccharomyces cerevisiae	protein stability index	0.685
RLVVEPLQGRKH [ISD11 C-terminal 12 aa]	Saccharomyces cerevisiae	protein stability index	0.72
WTWLDGKFPTFA [GRE3 C-terminal 12 aa]	Saccharomyces cerevisiae	protein stability index	0.709
MLCTLTGYQNND [NUP192 C-terminal 12 aa]	Saccharomyces cerevisiae	protein stability index	0.685
LEKLCQKQSSTK [CMC1 C-terminal 12 aa]	Saccharomyces cerevisiae	protein stability index	0.712
DKEVLHVKADSL [FTR1 C-terminal 12 aa]	Saccharomyces cerevisiae	protein stability index	0.7

* * *

Test system: Saccharomyces cerevisiae
Assay: protein stability index of tFT-peptide fusion (C-terminal peptide) (PSI (0-1 scale)); higher = more stable (slower turnover)
Conditions: genetic background: wild type; temperature: 30 C
# protein stability index listing for each entry below
Experimental readout: protein stability index

Residues	Measured on	Observed value
SSESPPLLPRPL	Saccharomyces cerevisiae	0.754
VLLPEPCALRFT	Saccharomyces cerevisiae	0.551
THCSGAGPPSPP	Saccharomyces cerevisiae	0.689
ICGGTNFPLGSV	Saccharomyces cerevisiae	0.741
KVDGTIDSRVMS	Saccharomyces cerevisiae	0.683
RAARGGRSGTRV	Saccharomyces cerevisiae	0.643
PGCNLPLVPPRL	Saccharomyces cerevisiae	0.701
FLCNSVAGSLCI	Saccharomyces cerevisiae	0.643
LLHRALLFPAVM	Saccharomyces cerevisiae	0.734
DMVSLGLAILIT	Saccharomyces cerevisiae	0.492
KEGDMWRVSTLD	Saccharomyces cerevisiae	0.682
FHPTCAPLPCPP	Saccharomyces cerevisiae	0.663
SKKKKNLQIPKK	Saccharomyces cerevisiae	0.734
LWTASISVAEVR	Saccharomyces cerevisiae	0.633
RWGGGQRLSRGT	Saccharomyces cerevisiae	0.708
VLLRRRSIWPLG	Saccharomyces cerevisiae	0.72
RTSNARLLPRIG	Saccharomyces cerevisiae	0.681
IFGRLRELTCWT	Saccharomyces cerevisiae	0.588
GGGGGGGGAWSG	Saccharomyces cerevisiae	0.723
LHPPPLPQAPPT	Saccharomyces cerevisiae	0.684
CVRPAPGSGGWQ	Saccharomyces cerevisiae	0.643

* * *

Tested on: Saccharomyces cerevisiae
Experiment: protein stability index of tFT-peptide fusion (C-terminal peptide) (PSI (0-1 scale)); higher = more stable (slower turnover)
Settings: genetic background: wild type; temperature: 30 C
Recorded protein stability index by entry
Experimental readout: protein stability index

Residues	Observed value
NQGSDVSFNEED [TOP2 C-terminal 12 aa]	0.685
SSLPYDILPALL [YGL199C C-terminal 12 aa]	0.688
NRKIARMRHSKR [NUP1 C-terminal 12 aa]	0.712
LSNQNSPLFLYH [YHR175W-A C-terminal 12 aa]	0.705
EKRFPEVMMLEK [FET4 C-terminal 12 aa]	0.679
FQREQVAKGGLL [CHL4 C-terminal 12 aa]	0.69
YEEAVDLGWNKN [OYE3 C-terminal 12 aa]	0.714
FPVKSSPNAHTA [YLR334C C-terminal 12 aa]	0.687
GKEHRFGLHIRS [DPH6 C-terminal 12 aa]	0.698

* * *

Tested on: Saccharomyces cerevisiae
Experiment: protein stability index of tFT-peptide fusion (C-terminal peptide) (PSI (0-1 scale)); higher = more stable (slower turnover)
Settings: genetic background: cdc34-1; temperature: 37 C
Reported protein stability index values follow for various sequences

Residues	Measured on	protein stability index
VFWVVFRALVGD	Saccharomyces cerevisiae	0.191
GFRVPVVVGVRG	Saccharomyces cerevisiae	0.449
IEVGVAILLLGE	Saccharomyces cerevisiae	0.646
LSFFDYVLLQIA	Saccharomyces cerevisiae	0.556
RPGRWFCFLYCV	Saccharomyces cerevisiae	0.382
VGVLWALIVGVR	Saccharomyces cerevisiae	0.167
VPWSKIAARLII	Saccharomyces cerevisiae	0.659
PPPSRRLTLRLA	Saccharomyces cerevisiae	0.612
RWELASKCRLCV	Saccharomyces cerevisiae	0.563
ESCWVSRVGVCR	Saccharomyces cerevisiae	0.685
FLPLFFLPCLSV	Saccharomyces cerevisiae	0.363
LLLPSAPFLFLL	Saccharomyces cerevisiae	0.305
VPGPSPPRFTQR	Saccharomyces cerevisiae	0.713
GTSDLIALLMLT	Saccharomyces cerevisiae	0.688
ACCGVFFFFFWL	Saccharomyces cerevisiae	0.403
LLFLWVLFLPFA	Saccharomyces cerevisiae	0.445
SFFCTRVLWVFQ	Saccharomyces cerevisiae	0.534
SWMSQFSILLTA	Saccharomyces cerevisiae	0.0938
RLVYSQKRWSLF	Saccharomyces cerevisiae	0.673
FLSPPPFLALLP	Saccharomyces cerevisiae	0.7
VFGSRCLLTVVV	Saccharomyces cerevisiae	0.472
FLSRHFLFLSFV	Saccharomyces cerevisiae	0.467
IWIRLGSENTVI	Saccharomyces cerevisiae	0.708
LVMYRSALIRGH	Saccharomyces cerevisiae	0.526
WFVFVFCSPRSS	Saccharomyces cerevisiae	0.547

* * *

Test system: Saccharomyces cerevisiae
Test: protein stability index of tFT-peptide fusion (C-terminal peptide) (PSI (0-1 scale)); higher = more stable (slower turnover)
Conditions: genetic background: wild type; temperature: 30 C
Binary classification by protein stability index, with 0.7 as an inclusive lower bound for Condition met; all other cases are Condition not met.

Residues	Measured on	Discrete label
VSSELLFLVVRF	Saccharomyces cerevisiae	Condition not met
DVILVSLPPPSV	Saccharomyces cerevisiae	Condition not met
NKKKKKRNKQKN	Saccharomyces cerevisiae	Condition met
QKKKKKKVQKKQ	Saccharomyces cerevisiae	Condition not met
WPAFYTSRLLLR	Saccharomyces cerevisiae	Condition not met
KKIKKKKNKKQE	Saccharomyces cerevisiae	Condition met
KTQKNQKLTRSK	Saccharomyces cerevisiae	Condition met
LPSPRIPLTSQS	Saccharomyces cerevisiae	Condition not met
GTLGYALPTPYE	Saccharomyces cerevisiae	Condition not met
GSWRSFHVWYNS	Saccharomyces cerevisiae	Condition not met
CICFLDGCSFVN	Saccharomyces cerevisiae	Condition met
WGTTLMYKAKKA	Saccharomyces cerevisiae	Condition not met
NYAMRGSVRTDK	Saccharomyces cerevisiae	Condition not met

* * *

Entries and their protein stability index values follow.
System: Saccharomyces cerevisiae
Assay: protein stability index of tFT-peptide fusion (C-terminal peptide) (PSI (0-1 scale)); higher = more stable (slower turnover)
Conditions: genetic background: wild type; temperature: 30 C

Residues	protein stability index
PYNFIQLLHQGL [HOF1 C-terminal 12 aa]	0.709
SPISVDFSSYLS [NBP1 C-terminal 12 aa]	0.72
KRTKTKITSNNG [YBR190W C-terminal 12 aa]	0.69
SFPIASSTTQTS [NST1 C-terminal 12 aa]	0.689
IDLFRDAYNHEN [UPS2 C-terminal 12 aa]	0.707
QPYRSGTLGKRR [AIR2 C-terminal 12 aa]	0.7
NGKTIKDATDNK [COX19 C-terminal 12 aa]	0.696
IAREIFHNVTNF [SEC39 C-terminal 12 aa]	0.695
KKKYKFHQGLSI [SOL2 C-terminal 12 aa]	0.695
KKEPGANCCIIL [RHO2 C-terminal 12 aa]	0.72
NPPISVSVTGDE [SRT1 C-terminal 12 aa]	0.698
DDDEDGYNPYTL [PAP2 C-terminal 12 aa]	0.697
FNNILTKEMQKI [CLD1 C-terminal 12 aa]	0.717
GAGVVAAAAMLL [TIR1 C-terminal 12 aa]	0.713
ELLYLIIAGLHI [FYV5 C-terminal 12 aa]	0.7
ESPTEDSVPHAE [CSA1 C-terminal 12 aa]	0.687

* * *

Test system: Saccharomyces cerevisiae
Experiment: protein stability index of tFT-peptide fusion (C-terminal peptide) (PSI (0-1 scale)); higher = more stable (slower turnover)
Details: genetic background: das1 deletion; temperature: 37 C
Entries and their protein stability index

Residues	protein stability index
LAISTIQMFKRI	0.718
VYVLVFNMENIS	0.616
FKFGVFDFRFLC	0.762
VMLIRVSRGIKC	0.485
GMMLLRFIIRWY	0.268
GTWCLAMARFCA	0.762
SRPGRWRLYYVS	0.758
RVGALLAVTCPA	0.513
PSPPPPLPPHPS	0.72
KLLDHFVKIRVY	0.416

* * *

Some sequences, each annotated with its measured protein stability index.
Test system: Saccharomyces cerevisiae
Experiment: protein stability index of tFT-peptide fusion (C-terminal peptide) (PSI (0-1 scale)); higher = more stable (slower turnover)
Conditions: genetic background: cdc34-1; temperature: 37 C

Residues	protein stability index
FKFGVFDFRFLC	0.451
WCCCVSGFVWWM	0.563
RILSLQFILCKR	0.607
WACAWRGMVKVG	0.202
